Overview of reported interaction score across a group of binders:
# test.system: T1, P1-AA
# T1 chain: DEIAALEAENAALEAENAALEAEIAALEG
# assay.remarks: two-hybrid library CCmax;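 further: natural log of median RNA to DNA barcode read ratio; higher means stronger binding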
measured.attribute: interaction score

* KRLKQLRKRKQAKRWEEAQIEKELQAIEK [4H_APH2] | -1.37
* KRLKQIEKRLQAKEWEKAQLRKELQALRK [4H_APH4] | -2.2
* KRAKQLRKRLQALEWQLAQIRKELQAAEK [4H_APH3] | -1.41
* DEIAALEAENAALEAENAALEAEIAALEG [P1-AA] | -1.9
